# protocol summary: AP1 Signaling Pathway (AID 357);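 further: ME-180 reporter cells stimulated with EGF at its EC50 level; on the % scale 0 is the no-effect control and ±100 the full control effect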
# setup conditions: ME-180 (cervical carcinoma) AP-1-bla reporter, EGF-induced, beta-lactamase ratio, 5 h; at 7.69 µM (top of the series) unless noted
Results filed as inconclusive are left out. The source made the active and inactive calls. The call rests on the fitted dose curve; in most records, active means well fitted curve in either direction with a large enough effect (not every such curve was filed as active); inconclusive means small, poorly fitted or top-dose-only effect, or another doubt; inactive means flat fitted curve, though single readings scatter.
Listed compounds paired with reported activity change, negative = inhibition

Example entries and their recorded answers appear below.
C[C@@H](C(=O)O)c1ccc(C(=O)c2cccs2)cc1 : 4.04% [at 17.2 µM] (inactive)
Cc1nc2cnc(Oc3ccccc3)nc2n(Cc2cccs2)c1=O : -17.8% (inactive)
COC(=O)N1CCC2(CCN(Cc3ccccc3OC)CC2)CC1 : 8.84% (inactive)
CN(Cc1ccco1)c1nc(-c2ccc3c(c2)OCO3)nc2ccccc12 : 17% (inactive)
COc1cccc(-c2cc(NCc3ccccc3OC)ncn2)c1 : -14.5% (inactive)

Input line: activity change, negative = inhibition for CN(C)Cc1ccccc1-c1nccc(Nc2ccc(F)cc2)n1 ?
Output line: 7.82% (inactive)

Input line: Then what about the compound COc1ccccc1-c1ccc2ncnc(N(C)C)c2c1 ?
Output line: -19.5% (inactive)

Input line: Then what about the compound COC(=O)N1CCC[C@@]2(CCN(C(=O)Nc3ccc(OC)cc3)C2)C1 ?
Output line: -11% (inactive)

Input line: Then what about the compound O=c1c(-c2cccc(F)c2)nc2cncnc2n1Cc1ccccc1 ?
Output line: -7.86% (inactive)

Input line: Then what about the compound O=C(c1ccncc1)N1CCC2(CCCN(Cc3ccccc3)C2)CC1 ?
Output line: -9.7% (inactive)

Input line: Then what about the compound O=C(Nc1ccccc1)N1CCCC2(CCN(C(=O)c3csnn3)CC2)C1 ?
Output line: -9.89% (inactive)

====

# system: Dual specificity protein kinase CLK4 (Homo sapiens)
# protocol summary: qHTS Assay for Inhibitors of CDC-like Kinase 4 (ADP-Glo Assay) (AID 1771); further: nearly all actives have a fitted effect of over 70% in size; further: potency means the concentration at half of the fitted maximal effect
# setup conditions: recombinant CLK4, ADP-Glo luminescence; series mostly up to 80 µM
Records with an inconclusive call do not appear. Active and inactive are the calls of the source. Calls come from the whole dose curve; as a rule, active = well fitted inhibition curve with a large enough effect; inconclusive = small, poorly fitted or top-dose-only effect; inactive = flat fitted curve, though single readings scatter.
measured property: Potency

COc1ccc(CNc2ccnc(-c3ccccc3OC)n2)c(OC)c1 : inactive
COc1cccc(Cn2c(=O)c(-c3ccc(F)cc3)nc3cncnc32)c1 : inactive
COCCn1c(=O)c(CCc2ccccc2)nc2cnc(N3CCOCC3)nc21 : inactive
CN1CCN(c2ncc3nc(-c4cccc(C#N)c4)c(=O)n(C[C@H]4CCCO4)c3n2)CC1 : inactive
COc1ccccc1-c1ccc2ncnc(NC3CC3)c2c1 : 14.1 µM (active)
COCCn1c(=O)cnc2cnc(Oc3cccc(Cl)c3)nc21 : inactive

Input line: Potency for CNc1nc(-c2ccoc2)nc2ccccc12 ?
Output line: inactive

Input line: Then what about the compound O=c1c(CCc2ccccc2)nc2cnc(N3CCOCC3)nc2n1CCc1ccccc1 ?
Output line: inactive

Input line: Then what about the compound Cn1c(=O)c(-c2ccc(F)c(F)c2)nc2cncnc21 ?
Output line: inactive

Input line: Then what about the compound COc1cccc(Nc2ncc3ncc(=O)n(C[C@H]4CCCO4)c3n2)c1 ?
Output line: 1.58 µM (active)

Input line: Then what about the compound COc1ccccc1CNc1cc(-c2ccccc2Cl)ncn1 ?
Output line: 15.8 µM (active)

====

# system: Rap guanine nucleotide exchange factor 4 (Homo sapiens)
# protocol summary: Confirmatory qHTS for agonist of cAMP-regulated guanine nucleotide exchange factor 4 (EPAC2) (AID 1645884);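 further: nucleotide exchange releases bodipy-GDP from Rap1 and this lowers its fluorescence; on the % scale 0 is the no-effect control and ±100 the full control effect; nearly all actives have a fitted effect of over 65% in size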
# setup conditions: EPAC2 GEF activity, Rap1B-BODIPY-GDP fluorescence; series mostly up to 154 µM
Records with an inconclusive call do not appear. Activity calls are given as the source filed them. Calls follow the shape of the dose curve; as a rule, active = well fitted activation curve with a large enough effect; inconclusive = small, poorly fitted or top-dose-only effect; inactive = no such curve, though single readings can be large or run the other way.
Respond with a class label; see active, inactive

Recorded results for 6 compounds are shown here.
COc1cc(-c2coc3cc(OCc4ccccc4)c(OC)c(O)c3c2=O)cc(O)c1OC : inactive
COC(=O)CC1C2(C)CC34OC5(C)O[C@@]6(C7/C(=C(/OC)C(C)C)C(=O)OC(c8ccoc8)[C@@]7(C)C(OC(=O)C(C)C)C(OC)[C@]6(O5)[C@@]13C)C(OC)[C@]4(OC)C2OC(C)=O (some centres not stated) : inactive
Cc1c(CC(C)(C)C(=O)O)n(Cc2ccc(Cl)cc2)c2ccc(F)cc12 : inactive
COc1ccc2c(c1)OCc1c-2oc2cc(OC)ccc12 : inactive
NCC1OC(n2cnc3c(=O)[nH]c(N)nc32)C(O)C1O (configuration not stated) : inactive
COc1cccc(Nc2ncc3ncc(=O)n(Cc4cccs4)c3n2)c1 : inactive

Input line: For this compound, state the assay outcome: O=C(c1cccc(F)c1)N1CCC[C@@]2(CCN(C(c3ccccc3)c3ccccc3)C2)C1
Output line: inactive

Input line: Then what about the compound Cn1cccc1C(=O)N1CCC2(CCCN(c3cccc(-c4ccccc4)c3)C2)CC1 ?
Output line: inactive

Input line: Then what about the compound COc1ccc2c(c1)OC/C(=C/c1ccc(O)c(O)c1)C2=O ?
Output line: inactive

Input line: Then what about the compound COc1ccc2[nH]cc(CCNc3ncnc4ccc(-c5ccc6c(c5)OCO6)cc34)c2c1 ?
Output line: inactive

Input line: Then what about the compound COc1cccc(Nc2ncc3nc(-c4cc(F)cc(F)c4)c(=O)n(C4CC4)c3n2)c1 ?
Output line: inactive

Input line: Then what about the compound COc1ccc(CNc2ncncc2-c2ccccc2C)c(OC)c1 ?
Output line: inactive

Input line: Then what about the compound COc1ccc(CNc2nc(-c3ccc4c(c3)OCO4)nc3ccccc23)c(OC)c1 ?
Output line: inactive

Input line: Then what about the compound COc1cc(C/C=C/c2ccccc2)c(OC)cc1O ?
Output line: inactive

====

# system: Dual specificity protein kinase CLK4 (Homo sapiens)
# protocol summary: qHTS Assay for Inhibitors of CDC-like Kinase 4 (Kinase-Glo Assay) (AID 1770); further: nearly all actives have a fitted effect of over 65% in size
# setup conditions: recombinant Clk4, Kinase-Glo ATP depletion luminescence; series mostly up to 66.7 µM
Results filed as inconclusive are left out. The source made the active and inactive calls. The call rests on the fitted dose curve; in most records, active means well fitted inhibition curve with a large enough effect; inconclusive means small, poorly fitted or top-dose-only effect; inactive means flat fitted curve, though single readings scatter.
Respond with a class label; see t = active, f = inactive

Recorded results for 5 compounds are shown here.
CN1CCN(c2ncncc2-c2ccccc2Cl)CC1 : f
COCCn1c(=O)c(-c2ccc(Cl)cc2)nc2cnc(N3CCOCC3)nc21 : f
CN(C)c1ccc(-c2ccc3ncnc(NC4CC4)c3c2)cc1 : t
c1cncc(-c2ccc3ncnc(NC4CCNCC4)c3c2)c1 : t
COc1ncc2nc(-c3cn(C)c4ccccc34)c(=O)n(CCC#N)c2n1 : f

Input line: For this compound, state the assay outcome: N#CCCn1c(=O)c(-c2ccc(Cl)cc2)nc2cnc(N3CCNCC3)nc21
Output line: f

Input line: Then what about the compound N#CCCn1c(=O)cnc2cnc(Oc3cccc(Cl)c3)nc21 ?
Output line: f

Input line: Then what about the compound CS(=O)(=O)Nc1cccc(-c2nc(-n3ccnc3)c3ccccc3n2)c1 ?
Output line: t

Input line: Then what about the compound FC(F)(F)c1ccccc1-c1cncnc1NCc1ccccc1 ?
Output line: f

Input line: Then what about the compound CNc1ccnc(-c2cccc(NS(C)(=O)=O)c2)n1 ?
Output line: f

Input line: Then what about the compound COc1ccccc1-c1ccc2ncnc(Nc3ccccc3)c2c1 ?
Output line: t

Input line: Then what about the compound COc1cccc(-c2nccc(NCc3cccnc3)n2)c1 ?
Output line: t

Input line: Then what about the compound c1cn(-c2ccnc(-c3ccc4c(c3)OCO4)n2)cn1 ?
Output line: t

Input line: Then what about the compound COc1cccc(-c2nccc(NCc3ccc(OC)cc3OC)n2)c1 ?
Output line: t

Input line: Then what about the compound COCCn1c(=O)c(-c2cccs2)nc2cnc(OC)nc21 ?
Output line: f

Input line: Then what about the compound COc1ccc(-n2c(=O)c(-c3ccc(F)c(F)c3)nc3cncnc32)cc1 ?
Output line: f

Input line: Then what about the compound CCNc1ncc2nc(-c3cc(F)cc(F)c3)c(=O)n(CCOC)c2n1 ?
Output line: f

Input line: Then what about the compound O=c1c(-c2ccc(F)cc2)nc2cnc(N3CCOCC3)nc2n1Cc1ccc(F)cc1 ?
Output line: f

Input line: Then what about the compound N#Cc1cccc(-c2nc(NCc3cccs3)c3ccccc3n2)c1 ?
Output line: f

Input line: Then what about the compound COCCn1c(=O)c(C)nc2cnc(Oc3cccc(Cl)c3)nc21 ?
Output line: f

Input line: Then what about the compound c1nc(NCCN2CCOCC2)c2cc(-c3ccoc3)ccc2n1 ?
Output line: t

Input line: Then what about the compound COc1cccc(-c2ccc3ncnc(NCCc4c[nH]c5ccc(OC)cc45)c3c2)c1 ?
Output line: t

====

# system: Dual specificity protein kinase CLK4 (Homo sapiens) (UniProt Q9HAZ1)
# Sequence (Q9HAZ1 whole entry, looked up): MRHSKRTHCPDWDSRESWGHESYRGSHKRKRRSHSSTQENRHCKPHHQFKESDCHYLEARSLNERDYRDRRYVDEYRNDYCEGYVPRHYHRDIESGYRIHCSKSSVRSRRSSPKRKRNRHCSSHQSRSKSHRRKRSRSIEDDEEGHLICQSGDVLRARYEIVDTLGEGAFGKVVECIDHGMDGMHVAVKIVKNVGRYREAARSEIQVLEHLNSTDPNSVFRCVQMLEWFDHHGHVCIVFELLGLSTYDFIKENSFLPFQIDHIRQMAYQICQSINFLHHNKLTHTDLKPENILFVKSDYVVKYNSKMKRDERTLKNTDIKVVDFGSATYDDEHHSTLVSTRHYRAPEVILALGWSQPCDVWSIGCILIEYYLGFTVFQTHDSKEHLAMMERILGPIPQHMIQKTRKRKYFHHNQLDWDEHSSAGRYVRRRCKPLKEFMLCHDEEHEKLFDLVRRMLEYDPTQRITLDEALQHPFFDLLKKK
# protocol summary: qHTS Assay for Inhibitors of CDC-like Kinase 4 (ADP-FP Assay) (AID 1795); further: nearly all actives have a fitted effect of over 60% in size
# setup conditions: Transcreener ADP fluorescence polarization; series mostly up to 50 µM
Inconclusive results are not listed. Activity calls are given as the source filed them. Calls follow the shape of the dose curve; as a rule, active = well fitted inhibition curve with a large enough effect; inconclusive = small, poorly fitted or top-dose-only effect; inactive = flat fitted curve, though single readings scatter.
Respond with a class label; see active, inactive

Recorded results for 5 compounds are shown here.
COc1ccccc1CNc1nc(-c2ccc3c(c2)OCO3)nc2ccccc12 : inactive
CCNc1ncc2nc(-c3cn(C)c4ccccc34)c(=O)n(CCC#N)c2n1 : inactive
c1ccc(CNc2nc(-c3ccoc3)nc3ccccc23)cc1 : inactive
CS(=O)(=O)Nc1cccc(-c2ccc3ncnc(N4CCOCC4)c3c2)c1 : active
COCCn1c(=O)c(-c2ccc(Cl)cc2)nc2cnc(N3CCOCC3)nc21 : inactive

Input line: For this compound, state the assay outcome: COc1ncc2nc(-c3ccccc3)c(=O)n(C3CC3)c2n1
Output line: inactive

Input line: Then what about the compound Cc1ccccc1-c1cc(N2CCNCC2)ncn1 ?
Output line: inactive

Input line: Then what about the compound CNc1cc(-c2ccccc2C)ncn1 ?
Output line: inactive

Input line: Then what about the compound FC(F)(F)c1ccccc1-c1ccc2ncnc(NCc3cccs3)c2c1 ?
Output line: inactive

Input line: Then what about the compound O=c1c(-c2ccc(Cl)cc2)nc2cnc(N3CCNCC3)nc2n1CCc1ccccc1 ?
Output line: inactive

Input line: Then what about the compound O=c1c(-c2cccc(Cl)c2)nc2cncnc2n1Cc1ccccc1 ?
Output line: inactive

Input line: Then what about the compound COc1ccccc1-c1nc(NCc2cccnc2)c2ccccc2n1 ?
Output line: inactive

Input line: Then what about the compound CCNc1ncc2nc(-c3ccc(Cl)cc3)c(=O)n(Cc3cccc(OC)c3)c2n1 ?
Output line: inactive

Input line: Then what about the compound COc1ccc(-c2nc3cnc(OC)nc3n(C)c2=O)cc1 ?
Output line: inactive

Input line: Then what about the compound Cc1ccccc1-c1ccc2ncnc(N(C)Cc3ccco3)c2c1 ?
Output line: active

Input line: Then what about the compound CN(C)C(=O)c1ccc(-c2cncnc2NCc2ccccc2)cc1 ?
Output line: inactive

Input line: Then what about the compound CCNc1ncc2nc(-c3ccc(F)cc3)c(=O)n(-c3ccc(OC)cc3)c2n1 ?
Output line: inactive

Input line: Then what about the compound CN1CCN(c2ncc3nc(-c4ccccc4)c(=O)n(C4CC4)c3n2)CC1 ?
Output line: inactive

Input line: Then what about the compound CCNc1ncc2nc(-c3ccc(Cl)cc3)c(=O)n(Cc3ccc(F)cc3)c2n1 ?
Output line: inactive

Input line: Then what about the compound COc1ccc(CNc2ccnc(-c3ccc(N(C)C)cc3)n2)c(OC)c1 ?
Output line: inactive

Input line: Then what about the compound COc1ccc2[nH]cc(CCNc3ncnc4ccc(-c5ccc6c(c5)OCO6)cc34)c2c1 ?
Output line: active

Input line: Then what about the compound O=c1c(-c2ccc(Cl)cc2)nc2cnc(N3CCNCC3)nc2n1-c1ccccc1 ?
Output line: inactive

Input line: Then what about the compound Cc1cnc(CNc2ncncc2-c2ccc(N(C)C)cc2)cn1 ?
Output line: inactive

Input line: Then what about the compound CN(C)C(=O)c1ccc(-c2ccc3ncnc(N4CCOCC4)c3c2)cc1 ?
Output line: inactive

Input line: Then what about the compound COCCn1c(=O)c(-c2ccccc2)nc2cnc(Nc3cccc(OC)c3)nc21 ?
Output line: inactive

Input line: Then what about the compound COc1ccccc1CNc1cc(-c2ccoc2)ncn1 ?
Output line: inactive

Input line: Then what about the compound COc1ccccc1CNc1nc(-c2ccccc2OC)nc2ccccc12 ?
Output line: inactive

Input line: Then what about the compound CCNc1ncc2nc(C)c(=O)n(C[C@H]3CCCO3)c2n1 ?
Output line: inactive

Input line: Then what about the compound Cn1c(=O)c(-c2cccc(F)c2)nc2cncnc21 ?
Output line: inactive

Input line: Then what about the compound COc1ccc2[nH]cc(CCNc3ccnc(-c4ccccc4C)n3)c2c1 ?
Output line: inactive

Input line: Then what about the compound COc1cccc(Cn2c(=O)c(-c3ccccc3)nc3cnc(OC)nc32)c1 ?
Output line: inactive

Input line: Then what about the compound Cc1cnc(CNc2nc(-c3ccccc3Cl)nc3ccccc23)cn1 ?
Output line: inactive
